Recorded values, source patent US12448388B2.

TARGET_OR_SYSTEM: hERG ion channel (Homo sapiens, UniProt Q12809)
Construct: host or cells: HEK293
Sequence (Q12809 whole entry): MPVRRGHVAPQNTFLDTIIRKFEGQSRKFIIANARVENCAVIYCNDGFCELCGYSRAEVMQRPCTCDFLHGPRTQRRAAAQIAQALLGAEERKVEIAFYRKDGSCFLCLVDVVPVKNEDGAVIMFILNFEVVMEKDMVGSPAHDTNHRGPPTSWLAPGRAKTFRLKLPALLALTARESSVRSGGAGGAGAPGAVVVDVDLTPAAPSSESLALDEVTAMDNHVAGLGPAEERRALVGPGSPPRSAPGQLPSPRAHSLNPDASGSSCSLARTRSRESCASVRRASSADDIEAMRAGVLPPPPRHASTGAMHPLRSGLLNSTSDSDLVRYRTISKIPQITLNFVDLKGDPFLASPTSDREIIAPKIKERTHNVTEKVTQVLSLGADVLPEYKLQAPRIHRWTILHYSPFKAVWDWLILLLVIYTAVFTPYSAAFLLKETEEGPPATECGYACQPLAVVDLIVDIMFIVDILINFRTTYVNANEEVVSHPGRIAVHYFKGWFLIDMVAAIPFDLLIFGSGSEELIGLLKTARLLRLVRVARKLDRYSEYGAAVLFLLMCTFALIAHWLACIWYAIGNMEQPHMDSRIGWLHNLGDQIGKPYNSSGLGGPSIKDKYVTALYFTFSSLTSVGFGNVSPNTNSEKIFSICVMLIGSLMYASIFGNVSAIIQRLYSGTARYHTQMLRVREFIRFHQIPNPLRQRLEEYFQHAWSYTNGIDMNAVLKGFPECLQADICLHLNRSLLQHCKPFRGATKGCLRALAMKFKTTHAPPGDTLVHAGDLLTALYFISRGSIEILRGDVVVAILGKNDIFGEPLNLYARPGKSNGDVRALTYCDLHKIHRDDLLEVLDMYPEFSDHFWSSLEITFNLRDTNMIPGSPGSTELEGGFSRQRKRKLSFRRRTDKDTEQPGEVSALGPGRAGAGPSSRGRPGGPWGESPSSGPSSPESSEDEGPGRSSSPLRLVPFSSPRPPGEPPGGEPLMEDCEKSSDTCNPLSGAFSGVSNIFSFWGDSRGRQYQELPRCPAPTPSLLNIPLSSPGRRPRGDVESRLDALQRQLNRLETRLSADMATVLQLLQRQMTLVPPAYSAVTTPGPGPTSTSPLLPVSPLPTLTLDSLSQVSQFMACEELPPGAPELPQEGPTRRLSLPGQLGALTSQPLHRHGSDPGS
EXPERIMENTAL_DETAILS: hERG assay (automated patch clamp, QPatch HT)
Format: cell-based
TEST_PARAMETERS: HEK293 hERG, * = accurate hERG measurement may be limited by compound solubility

| MOLECULE | IC50, µM |
| --- | --- |
| Nc1nc2ccc(C(=O)N3CCC[C@@H]4Oc5cc(C(F)(F)F)ccc5[C@@H]43)cc2n2cncc12 | 6.7 |
| Nc1nc2cnc(C(=O)N3CCC[C@@H]4Oc5cc(C(F)(F)F)ccc5[C@@H]43)cc2n2cncc12 | 8.47 |
| Nc1nc2cnc(C(=O)N3CC[C@H]4C[C@@H]3c3c(F)cc(C(F)(F)F)cc3O4)cc2n2cncc12 (single isomer, unassigned) | 16.2 |
| Nc1nc2cc(F)c(C(=O)N3CCC[C@@H]4Oc5cc(C(F)(F)F)ccc5[C@@H]43)cc2n2cncc12 | 14.2 |
| C[C@H]1CN(C(=O)c2cc3c(cc2F)nc(N)c2cncn23)[C@H]2c3ccc(C(F)(F)F)cc3C[C@H]2O1 (single isomer, unassigned) | 27.7 |
| Nc1nc2cnc(C(=O)N3CCC[C@@H]4Oc5cc(OC(F)(F)F)cc(F)c5[C@@H]43)cc2n2cncc12 (single isomer, unassigned) | 6.2 |
| Cc1ncn2c1c(N)nc1cnc(C(=O)N3CCC[C@@H]4Oc5cc(C(F)(F)F)ccc5[C@@H]43)cc12 | 17.5 |

====

EXPERIMENTAL_DETAILS: Cell viability assay (CellTiter-Glo, 7 days), HCT116 WT
Format: cell-based
TEST_PARAMETERS: human, HCT116 WT cells, 7 days of treatment, CTG

| COMPOUND | UNIT_ABBREV | CC50 at 7 days |
| --- | --- | --- |
| Cc1ncc2c(N)nc3cnc(C(=O)N4CC[C@H]5C[C@@H]4c4cc(F)c(C(F)(F)F)cc4O5)cc3n12 | nM | 1410 |
| Nc1nc2cc(F)c(C(=O)N3CC[C@H]4C[C@@H]3c3ccc(C(F)(F)F)nc3O4)cc2n2cncc12 | nM | 2170 |
| N#Cc1cc2nc(N)c3cncn3c2cc1C(=O)N1CCC[C@@H]2Oc3cc(C(F)(F)F)ccc3[C@@H]21 | nM | 305 |
| C[C@H]1CN(C(=O)c2cc3c(cc2F)nc(N)c2cncn23)[C@H]2c3ccc(C(F)(F)F)cc3C[C@H]2O1 (single isomer, unassigned) | nM | 1350 |
| Nc1nc2cnc(C(=O)N3CCC[C@@H]4Oc5cc(C(F)(F)F)cc(F)c5[C@@H]43)cc2n2cncc12 (single isomer, unassigned) | nM | 503 |
| Nc1nc2cc(Cl)c(C(=O)N3CCC[C@@H]4Oc5cc(C(F)(F)F)ccc5[C@@H]43)cc2n2cncc12 | nM | 274 |
| Cc1ncn2c1c(N)nc1cnc(C(=O)N3CCC[C@@H]4Oc5cc(C(F)(F)F)ccc5[C@@H]43)cc12 | nM | 897 |
| Nc1nc2cnc(C(=O)N3CC[C@H]4C[C@@H]3c3ccc(C(F)(F)F)c(F)c3O4)cc2n2cncc12 | nM | 1310 |
| C[C@@H]1C[C@@H]2Oc3cc(C(F)(F)F)ccc3[C@@H]2N(C(=O)c2cc3c(cn2)nc(N)c2cncn23)C1 | nM | 534 |
| Nc1nc2cnc(C(=O)N3CC[C@H]4C[C@@H]3c3ccc(OC(F)(F)F)cc3O4)cc2n2cncc12 | nM | 1130 |
| Cc1ncn2c1c(N)nc1cnc(C(=O)N3CC[C@H]4C[C@@H]3c3ccc(C(F)(F)F)c(F)c3O4)cc12 | nM | 2080 |
| Nc1nc2ccc(C(=O)N3CCC[C@@H]4Oc5cc(OC(F)(F)F)cc(F)c5[C@@H]43)cc2n2cncc12 | nM | 4990 |
| Nc1nc2cc(F)c(C(=O)N3CCO[C@@H]4Cc5cc(C(F)(F)F)ccc5[C@@H]43)cc2n2cncc12 (single isomer, unassigned) | nM | 2070 |
| Cc1ncn2c1c(N)nc1cc(F)c(C(=O)N3CCC[C@@H]4Oc5cc(C(F)(F)F)ccc5[C@@H]43)cc12 | nM | 730 |
| Nc1nc2cnc(C(=O)N3CCC[C@@H]4Oc5c(ccc(C(F)(F)F)c5F)[C@@H]43)cc2n2cncc12 | nM | 1380 |
| Nc1nc2ccc(C(=O)N3CCC[C@@H]4Oc5cc(C(F)(F)F)ccc5[C@@H]43)cc2n2cncc12 | nM | 1100 |
| Nc1nc2cc(F)c(C(=O)N3CCC[C@@H]4Oc5cc(C(F)(F)F)ccc5[C@@H]43)cc2n2cncc12 | nM | 470 |
| C[C@H]1CN(C(=O)c2cc3c(cc2F)nc(N)c2cncn23)[C@H]2c3cc(F)c(C(F)F)cc3C[C@H]2O1 (single isomer, unassigned) | nM | 2250 |
| Nc1nc2cnc(C(=O)N3CC4(CC4)C[C@@H]4Oc5cc(C(F)(F)F)ccc5[C@@H]43)cc2n2cncc12 | nM | 650 |
| Nc1nc2cnc(C(=O)N3CCC[C@@H]4Oc5cc(OC(F)(F)F)ccc5[C@@H]43)cc2n2cncc12 | nM | 710 |
| Cc1cc2nc(N)c3cncn3c2cc1C(=O)N1CCC[C@@H]2Oc3cc(C(F)(F)F)ccc3[C@@H]21 | nM | 178 |
